- target desc: Inhibitor of nuclear factor kappa-B kinase subunit alpha (Homo sapiens) (UniProt O15111)
- Sequence (O15111 whole entry): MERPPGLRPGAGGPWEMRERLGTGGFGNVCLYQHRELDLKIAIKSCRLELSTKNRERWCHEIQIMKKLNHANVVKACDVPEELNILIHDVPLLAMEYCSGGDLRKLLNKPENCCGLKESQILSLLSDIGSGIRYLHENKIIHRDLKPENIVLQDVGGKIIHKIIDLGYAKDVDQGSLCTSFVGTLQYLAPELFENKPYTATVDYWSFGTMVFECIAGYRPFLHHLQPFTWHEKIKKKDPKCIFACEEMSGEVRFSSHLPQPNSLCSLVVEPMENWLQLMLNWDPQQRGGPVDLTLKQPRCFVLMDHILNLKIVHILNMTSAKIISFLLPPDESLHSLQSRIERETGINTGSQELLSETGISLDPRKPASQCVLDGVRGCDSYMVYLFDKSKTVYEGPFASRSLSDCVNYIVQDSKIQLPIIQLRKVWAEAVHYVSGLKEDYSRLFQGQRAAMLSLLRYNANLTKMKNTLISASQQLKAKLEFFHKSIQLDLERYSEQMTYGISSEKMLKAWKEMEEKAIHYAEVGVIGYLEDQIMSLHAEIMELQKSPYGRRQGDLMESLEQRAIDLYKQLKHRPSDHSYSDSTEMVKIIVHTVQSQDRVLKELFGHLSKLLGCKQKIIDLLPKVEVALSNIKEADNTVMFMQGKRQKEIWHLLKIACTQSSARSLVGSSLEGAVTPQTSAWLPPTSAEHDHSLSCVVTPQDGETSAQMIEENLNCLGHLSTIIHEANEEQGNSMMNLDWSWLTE
- condition context: at 1 µM
quantity measured: residual activity (%)
Supply the numeric figure in %, leaving out any unit text.

Ask: // Input: `CN(C)c1ccc(/C=C2\C(=O)Nc3ccccc32)cc1` . Output its residual activity only.
Result: 102

Ask: Determine its reported residual activity: `O=C1NC(=O)/C(=C/c2ccc3c(c2)OC(F)(F)O3)S1`
Result: 112

Ask: Kindly indicate its recorded residual activity. Item: `O=C(O)c1ccc2c3c1cccc3c(=O)n1c3ccccc3nc21`
Result: 109

Ask: Fill in residual activity for record `Cn1cc(/C=C2\C(=O)Nc3ccc(S(N)(=O)=O)cc32)c2ccccc21`
Result: 100

Ask: Please look at this compound and report its residual activity: `Cc1nc(-c2ccccc2)c(-c2ccncc2)o1`
Result: 109

====

Entries and their residual activity values follow.
- target desc: Tyrosine-protein kinase Lck (Homo sapiens) (UniProt P06239)
- Sequence (P06239 2-509 limits assumed): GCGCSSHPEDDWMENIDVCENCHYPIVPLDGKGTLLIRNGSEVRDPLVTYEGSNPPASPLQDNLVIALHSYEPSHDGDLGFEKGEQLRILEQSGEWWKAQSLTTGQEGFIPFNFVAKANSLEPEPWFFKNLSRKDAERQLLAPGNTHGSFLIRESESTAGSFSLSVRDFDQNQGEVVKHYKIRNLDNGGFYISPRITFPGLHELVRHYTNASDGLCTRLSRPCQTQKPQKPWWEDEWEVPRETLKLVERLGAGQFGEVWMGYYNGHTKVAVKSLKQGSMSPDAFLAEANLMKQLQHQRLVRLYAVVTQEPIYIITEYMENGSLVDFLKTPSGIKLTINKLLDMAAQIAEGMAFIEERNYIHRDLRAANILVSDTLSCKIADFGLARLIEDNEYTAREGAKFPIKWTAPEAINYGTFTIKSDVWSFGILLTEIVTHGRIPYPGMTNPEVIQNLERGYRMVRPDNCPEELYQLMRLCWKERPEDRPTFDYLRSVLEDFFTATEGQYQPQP
- condition context: at 10 µM
// note: answer is a bare numeric in %

Ask: # return residual activity for `CO[C@H]1C[C@@H]2CC[C@@H](C)[C@@](O)(O2)C(=O)C(=O)N2CCCC[C@H]2C(=O)O[C@H]([C@H](C)C[C@@H]2CC[C@@H](O)[C@H](OC)C2)CC(=O)[C@H](C)/C=C(\C)[C@@H](O)[C@@H](OC)C(=O)[C@H](C)C[C@H](C)/C=C/C=C/C=C/1C` , test system: Tyrosine-protein kinase Lck (Homo sapiens) (UniProt P06239)
Result: 80

Ask: Report residual activity from Tyrosine-protein kinase Lck (Homo sapiens) (UniProt P06239) testing of `Cc1cccc(-c2[nH]c(C(C)(C)C)nc2-c2ccc3c(c2)OCO3)n1`
Result: 86

Ask: GET residual activity | system: Tyrosine-protein kinase Lck (Homo sapiens) (UniProt P06239) | item: `COc1cc2ncnc(Nc3ccc(NC(=O)c4ccccc4)cc3)c2cc1OC`
Result: 17

Ask: Quote residual activity with test system Tyrosine-protein kinase Lck (Homo sapiens) (UniProt P06239) for `N#C/C(=C(\N)Sc1ccc(N)cc1)c1ccccc1C(F)(F)F`
Result: 103

Ask: Would you please give the reported residual activity of O=C1Nc2ccccc2/C1=C1/Nc2ccccc2/C1=N\OCCC(O)CO (stereo not drawn) with Tyrosine-protein kinase Lck (Homo sapiens) (UniProt P06239)?
Result: 5

Ask: Answer briefly: residual activity recorded on Tyrosine-protein kinase Lck (Homo sapiens) (UniProt P06239) for `O=C1c2ccccc2-[n+]2ccc3c([nH]c4ccccc43)c21`
Result: 69

====

- target desc: RAF proto-oncogene serine/threonine-protein kinase (Homo sapiens) (UniProt P04049)
- Sequence (P04049 whole entry): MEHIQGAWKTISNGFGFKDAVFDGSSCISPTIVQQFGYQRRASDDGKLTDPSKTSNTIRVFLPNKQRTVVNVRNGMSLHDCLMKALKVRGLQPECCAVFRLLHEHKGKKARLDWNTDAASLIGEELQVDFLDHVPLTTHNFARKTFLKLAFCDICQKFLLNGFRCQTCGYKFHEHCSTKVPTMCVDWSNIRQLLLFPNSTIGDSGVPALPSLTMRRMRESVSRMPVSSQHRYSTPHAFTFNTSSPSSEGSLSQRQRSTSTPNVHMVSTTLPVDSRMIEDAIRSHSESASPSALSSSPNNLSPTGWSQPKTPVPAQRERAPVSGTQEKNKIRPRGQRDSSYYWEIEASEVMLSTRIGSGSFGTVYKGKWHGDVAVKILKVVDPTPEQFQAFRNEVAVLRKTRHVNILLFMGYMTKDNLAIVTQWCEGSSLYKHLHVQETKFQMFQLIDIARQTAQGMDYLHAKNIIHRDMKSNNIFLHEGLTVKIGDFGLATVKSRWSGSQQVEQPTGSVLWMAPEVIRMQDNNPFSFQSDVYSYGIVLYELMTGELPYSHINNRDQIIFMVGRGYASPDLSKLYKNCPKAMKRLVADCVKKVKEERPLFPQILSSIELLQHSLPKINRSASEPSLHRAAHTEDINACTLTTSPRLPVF
- condition context: at 10 µM
Param threshold (80%) applies to residual activity; output YES when value >= threshold, NO when value < threshold.

Illustrative cases are given below, each with its answer.
>>> label_value("CNc1cc2c(Nc3cccc(Br)c3)ncnc2cn1")
"YES"
>>> label_value("c1ccc(-c2n[nH]c3c2oc2ccccc23)cc1")
"YES"
>>> label_value("O=C1NC(=O)/C(=C/c2ccc3c(c2)OC(F)(F)O3)S1")
"YES"
>>> label_value("Oc1ccc(Nc2nc(-c3ccc(Cl)cc3)cs2)cc1")
"YES"

Ask: Hi team, for `COc1ccc(OC)c2c(=S)c3ccccc3[nH]c12` , is the recorded residual activity at or above 80%?
Result: YES

Ask: Please indicate if the recorded residual activity for `COc1ccc(CNc2nc(N(CCO)CCO)nc3c2ncn3C(C)C)cc1` meets or exceeds 80%.
Result: NO

Ask: # bool: residual activity of `COc1ccc(C(=O)Nc2sc3c(c2C(N)=O)CCCC3)cc1OC` >= 80%
Result: YES

Ask: # bool: residual activity of `Cc1cc(Nc2nc(-c3ccccc3)nc3ccccc23)n[nH]1` >= 80%
Result: NO
